B1: HDV Ribozyme (parent)
chain: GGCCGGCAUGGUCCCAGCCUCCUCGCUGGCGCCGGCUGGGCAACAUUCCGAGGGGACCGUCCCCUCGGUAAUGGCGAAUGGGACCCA

Variants of: B1
Assay: self-cleavage, relative activity (ratio to wild type); higher = more cleavage; co-transcriptional
Is self-cleavage at least 0.1? Then 1.0. If not, 0.0.

C22G G73A
0.0
A56G C64U
1.0
C7A C75U
1.0
G38C A56C
1.0
G28A G31C
0.0
A43G A51C
1.0
C49U U79G
1.0
A8U C36G
1.0
G2U C63G
0.0
G1A A83G
1.0

Exam item: Does G5C C15A have a reported self-cleavage of at least 0.1?
Marked response: 1.0

Exam item: Does G2U G55A have a reported self-cleavage of at least 0.1?
Marked response: 0.0

Exam item: Does C13A G34C have a reported self-cleavage of at least 0.1?
Marked response: 1.0

Exam item: Does G25C G35C have a reported self-cleavage of at least 0.1?
Marked response: 1.0

Exam item: Does G68A A70G have a reported self-cleavage of at least 0.1?
Marked response: 1.0

Exam item: Does G68A G74U have a reported self-cleavage of at least 0.1?
Marked response: 1.0

Exam item: Does G25A G34U have a reported self-cleavage of at least 0.1?
Marked response: 0.0

Exam item: Does G10C C19G have a reported self-cleavage of at least 0.1?
Marked response: 0.0

Exam item: Does C13A G38C have a reported self-cleavage of at least 0.1?
Marked response: 1.0

Exam item: Does A8C C22G have a reported self-cleavage of at least 0.1?
Marked response: 0.0

Exam item: Does C18G A51U have a reported self-cleavage of at least 0.1?
Marked response: 0.0

Exam item: Does G1A C13G have a reported self-cleavage of at least 0.1?
Marked response: 0.0

Exam item: Does C24A G50U have a reported self-cleavage of at least 0.1?
Marked response: 1.0

Exam item: Does C63G G80U have a reported self-cleavage of at least 0.1?
Marked response: 1.0

Exam item: Does C30G C49A have a reported self-cleavage of at least 0.1?
Marked response: 1.0

Exam item: Does G55U G76A have a reported self-cleavage of at least 0.1?
Marked response: 1.0

The measurements presented in this section are drawn from the RNAGym collection of RNA variant scans (doi:10.7554/elife.80360).
